The values you see were collected from PubChem BioAssay.

# protocol-notes: adipocyte viability effects, profiling panel, cell-based, 3T3-L1 adipocytes, calcein-AM fluorescence, 48 h, basal (AID 1163); note: test concentration not given here
# condition-summary: 3T3-L1 adipocytes viability, higher = more signal
Decide using z-score alone. Strictly below -0.2: Met. Equal to or above -0.2: Not met.

Worked examples, 2 compounds total:
• C=C(C)C1CCC(C(O)C2C=CC3C(=O)N(C)C(=O)C3N2N2CCCCC2)CC1 (stereo unspecified) = Met
• COc1ccc([Si](C)(C)[C@H]2[C@H](CC(=O)N(CCO)Cc3ccccc3)O[C@@]3(C(=O)N(Cc4cccc(N5CCOC5=O)c4)c4ccccc43)[C@@H]2C)cc1 = Not met

Q) Criterion: z-score strictly below -0.2. Is it met by `COC(=O)[C@@]1(Cc2ccc(F)cc2)[C@H]2c3cc(C(=O)N(C)C)n(Cc4cc(F)cc5c4OCOC5)c3C[C@H]2CN1C(=O)c1ccccc1` ?
A) Not met

Q) Same for `COC(=O)[C@@]1(Cc2ccc(F)cc2)[C@H]2c3cc(C(=O)N4CCCC4)n(CCN4CNCC4=O)c3C[C@H]2CN1C(=O)c1ccccc1`
A) Not met

Q) Ok, now `CCOC(=O)C1=C[C@@H](c2ccccc2)N(S(=O)(=O)c2ccc(C)cc2)[C@H]1c1ccccc1Cl`
A) Met
